# credit: PubChem BioAssay (EPA / NIEHS)

Assay: TOX21_p53_BLA_p4_viability: Viability Assessment in the Tox21 HCT-116 p53 Agonism Beta-lactamase Assay, Phase 4 (AID 2283597);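 also: hits lower the luminescence signal meaning cytotoxicity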
Inconclusive results are not listed. The source made the active and inactive calls. The calls were made as follows: active = hit-call score of the fitted dose curve at least 0.9, where 1 is the maximum; inconclusive = response in the unintended direction; inactive = score below 0.9.
Your reply should match one of these outcome classes. true (1) = active, false (0) = inactive

Study these solved cases before continuing.
molecule="CSc1ccc2c(c1)C(N1CCN(C)CC1)Cc1ccccc1S2 (stereo not drawn)" category="true (1)"
molecule=COc1ccc2cc1Oc1cc3c(cc1OC)CC[N+](C)(C)[C@H]3Cc1ccc(cc1)Oc1c(OC)c(OC)cc3c1[C@@H](C2)[N+](C)(C)CC3 category="false (0)"
molecule=O=C(Cn1cnnn1)N[C@@H]1C(=O)N2C(C(=O)O)=C(CSc3nncs3)CS[C@H]12 category="false (0)"

Prompt: // outcome(item) with item = C[C@]12CCC(=O)C=C1CC[C@@H]1[C@@H]2CC[C@@]2(C)[C@H]1CC[C@]2(O)C(=O)CO
Response: false (0)

Prompt: // outcome(item) with item = CCCCOC(=O)c1ccccc1C(=O)OCC(CC)CCCC (stereo not drawn)
Response: false (0)

Prompt: // outcome(item) with item = NC(Cc1ccc(F)cc1)C(=O)O (stereo not drawn)
Response: false (0)

Prompt: // outcome(item) with item = O=C1c2ccccc2-c2ccccc21
Response: false (0)

Prompt: // outcome(item) with item = CCCCOc1ccc(C(=O)CCN2CCCCC2)cc1
Response: true (1)
